# run_description: solvent given as SMILES
# condition_info: in CC(C)O
Quick reference: log10(fluorescence lifetime) of the listed items.
Annotation: log10 of fluorescence lifetime, ns basis.

Recorded results for 3 molecules are shown here.
Cc1ccc(-c2cc(-c3ccccc3)c3c(N)nc(N4CCCC4)c(C#N)c3n2)cc1 = 1.02
Nc1ccc2c(C(F)(F)F)cc(=O)oc2c1 = 0.72
CN(C)c1ccc(/C=C2\CC/C(=C\c3ccc(N(C)C)cc3)C2=O)cc1 = -0.17

Given `COc1cccc2c1C(=O)c1ccccc1-2` , state its recorded log10(fluorescence lifetime).
0.93

Given `Cc1ccc(-c2cc(-c3ccccc3Cl)c3c(N)nc(N4CCCC4)c(C#N)c3n2)cc1` , state its recorded log10(fluorescence lifetime).
1.05

Given NS(=O)(=O)c1ccc(N2N=C(c3ccc(O)cc3)CC2c2ccc([N+](=O)[O-])cc2)cc1 (stereo unspecified) , state its recorded log10(fluorescence lifetime).
0.15
